# Tested On: mitochondrial complex I (Homo sapiens, UniProt O75251+O75306+P03886)
# Sequence (O75306 34-463): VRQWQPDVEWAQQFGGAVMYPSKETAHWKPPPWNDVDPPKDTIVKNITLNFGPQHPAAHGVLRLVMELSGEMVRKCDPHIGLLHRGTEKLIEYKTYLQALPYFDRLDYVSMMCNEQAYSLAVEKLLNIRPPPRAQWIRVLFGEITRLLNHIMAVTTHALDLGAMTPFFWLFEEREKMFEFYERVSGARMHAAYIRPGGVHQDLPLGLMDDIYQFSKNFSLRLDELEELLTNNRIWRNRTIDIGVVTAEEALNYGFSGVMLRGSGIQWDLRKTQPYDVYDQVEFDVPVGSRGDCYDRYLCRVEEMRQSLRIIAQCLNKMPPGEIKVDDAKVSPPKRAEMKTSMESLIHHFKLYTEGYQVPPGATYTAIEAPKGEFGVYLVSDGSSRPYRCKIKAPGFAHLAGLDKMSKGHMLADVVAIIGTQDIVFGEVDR
# Sequence (O75251 39-213): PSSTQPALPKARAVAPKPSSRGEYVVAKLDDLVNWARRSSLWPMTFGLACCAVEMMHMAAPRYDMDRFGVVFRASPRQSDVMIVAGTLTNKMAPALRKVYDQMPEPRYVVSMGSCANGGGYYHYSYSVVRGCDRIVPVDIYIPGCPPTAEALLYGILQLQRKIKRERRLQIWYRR
# Sequence (P03886 whole entry): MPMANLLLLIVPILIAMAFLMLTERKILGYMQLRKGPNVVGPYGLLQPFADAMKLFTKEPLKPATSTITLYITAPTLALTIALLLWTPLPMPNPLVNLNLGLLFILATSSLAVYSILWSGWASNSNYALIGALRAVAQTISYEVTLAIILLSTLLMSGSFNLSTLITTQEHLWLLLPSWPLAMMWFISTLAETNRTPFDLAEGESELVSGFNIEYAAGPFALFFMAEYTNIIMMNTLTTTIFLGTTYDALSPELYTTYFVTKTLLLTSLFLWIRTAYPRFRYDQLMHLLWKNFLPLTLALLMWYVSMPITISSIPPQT
# Assay Text: Mitochondrial complex I-driven oxygen consumption rate (Seahorse XF96) in permeabilized MiaPaCa-2 cells
# Assay type: cell-based
# Study Conditions: 24 h treatment
Assay Metric: inhibition of complex I-induced oxygen consumption

>>> result("O=C1C(OCCCCCCCCCC[P+](c2ccccc2)(c2ccccc2)c2ccccc2)=C([C@H]2CC[C@H](c3ccc(Cl)cc3)CC2)C(=O)c2ccccc21 [Mito10-ATO]")
"potently inhibit"
>>> result("O=C1C(OCCCC[P+](c2ccccc2)(c2ccccc2)c2ccccc2)=C([C@H]2CC[C@H](c3ccc(Cl)cc3)CC2)C(=O)c2ccccc21 [Mito4-ATO]")
"potently inhibit"

###

# Tested On: mitochondrial complex III (Homo sapiens, UniProt P00156+P47985)
# Construct: endogenous in cells; host or cells: MiaPaCa-2
# Assay Text: Mitochondrial complex III-driven oxygen consumption rate (Seahorse XF96) in permeabilized MiaPaCa-2 cells
# Format: cell-based
# Study Conditions: 24 h treatment
Assay Metric: inhibition of complex III-induced oxygen consumption

>>> result("O=C1C(OCCCCCCCCCCCC[P+](c2ccccc2)(c2ccccc2)c2ccccc2)=C([C@H]2CC[C@H](c3ccc(Cl)cc3)CC2)C(=O)c2ccccc21")
"did not inhibit"
>>> result("O=C1C(OCCCCCCCCCCCCCCCC[P+](c2ccccc2)(c2ccccc2)c2ccccc2)=C([C@H]2CC[C@H](c3ccc(Cl)cc3)CC2)C(=O)c2ccccc21")
"did not inhibit"
>>> result("O=C1C(OCCCCCCCCCC[P+](c2ccccc2)(c2ccccc2)c2ccccc2)=C([C@H]2CC[C@H](c3ccc(Cl)cc3)CC2)C(=O)c2ccccc21")
"potently inhibit"
>>> result("O=C1C(OCCCC[P+](c2ccccc2)(c2ccccc2)c2ccccc2)=C([C@H]2CC[C@H](c3ccc(Cl)cc3)CC2)C(=O)c2ccccc21")
"potently inhibit"
